Tested on: Echinochloa oryzoides (Ard.) Fritsch.
Assay: Preemergence weed control under flooded paddy conditions, ECHORC (Watergrass (Calif.))
Assay type: in vivo
Conditions: 0.2500 kg/ha; preemergence, flooded paddy; rated three to four weeks after treatment
test.readout: ECHORC herbicidal rating
Give bare numbers.

Solved cases below.
chem.smiles | test.readout | data.value
Cn1c(C(F)(F)F)cc(=O)n(-c2ccc3snc(COCOCc4ccccc4)c3c2)c1=O | ECHORC herbicidal rating | 9.0
Cn1c(C(F)(F)F)cc(=O)n(-c2ccc3snc(C(=O)NS(N)(=O)=O)c3c2)c1=O | ECHORC herbicidal rating | 4.0
CC(C)NS(=O)(=O)NC(=O)c1nsc2ccc(-n3c(=O)cc(C(F)(F)F)n(C)c3=O)cc12 | ECHORC herbicidal rating | 9.0

Report ECHORC herbicidal rating for each item below.
1. COCC(=O)OCc1nsc2ccc(-n3c(=O)cc(C(F)(F)F)n(C)c3=O)cc12
2. Cn1c(C(F)(F)F)cc(=O)n(-c2ccc3snc(COC(=O)c4cc(Cl)nc(Cl)c4)c3c2)c1=O
3. Cn1c(C(F)(F)F)cc(=O)n(-c2ccc3snc(COC(=O)c4cccs4)c3c2)c1=O
4. COc1ccc(OC)c(CC(=O)OCc2nsc3ccc(-n4c(=O)cc(C(F)(F)F)n(C)c4=O)cc23)c1
5. COCOCc1nsc2ccc(-n3c(=O)cc(C(F)(F)F)n(C)c3=O)cc12

Response:
1. 7.0
2. 0.0
3. 3.0
4. 6.0
5. 9.0
